Test system: Hepatitis C virus
Assay: Antiviral activity against HCV1b by replicon assay
Format: functional, organism-based, Hepacivirus hominis
Details: genotype 1b
Flag rule - EC50 less than 20 nM flags TRUE; the remaining entries get FALSE.

> print(dat)
                                   compound  label
1  COc1ccc2c(c1)C1CC1(C(=O)N1C3CCC1CN(C)C3)Cn1c-2c(C2CCCCC2)c2ccc(C(=O)NS(C)(=O)=O)cc21 (racemic)   TRUE
2  COc1ccc2c(c1)C1CC1(C(=O)N1C3CCC1CN(C)C3)Cn1c-2c(C2CCCCC2)c2ccc(C(=O)NS(=O)(=O)C3CCCC3)cc21 (racemic)  FALSE
3  COc1ccc2c(c1)[C@@H]1C[C@]1(C(=O)N1C3CCC1CN(C)C3)Cn1c-2c(C2CCCCC2)c2ccc(C(=O)NS(=O)(=O)C3CCC3)cc21   TRUE

Task item: Below 20 nM on EC50? Entry COc1ccc2c(c1)C1CC1(C(=O)N1C3CCC1CN(C)C3)Cn1c-2c(C2CCCCC2)c2ccc(C(=O)NS(=O)(=O)N3CCC3)cc21 (racemic)
Reply: FALSE

Task item: Take the compound COc1ccc2c(c1)C1CC1(C(=O)N1C3CCC1CN(C)C3)Cn1c-2c(C2CCCCC2)c2ccc(C(=O)NS(=O)(=O)CC(C)C)cc21 (racemic) and say whether its EC50 is less than 20 nM.
Reply: FALSE

Task item: Find out if reported EC50 for CCCCS(=O)(=O)NC(=O)c1ccc2c(C3CCCCC3)c3n(c2c1)CC1(C(=O)N2C4CCC2CN(C)C4)CC1c1cc(OC)ccc1-3 (racemic) is less than 20 nM
Reply: FALSE

Task item: Would you kindly verify if EC50 of COc1ccc2c(c1)C1CC1(C(=O)N1C3CCC1CN(C)C3)Cn1c-2c(C2CCCCC2)c2ccc(C(=O)NS(=O)(=O)N(C)C)cc21 (racemic) is strictly less than 20 nM?
Reply: TRUE

Task item: # strict comparison: is reported EC50 < 20 nM? input = COc1ccc2c(c1)C1CC1(C(=O)N1C3CCC1CN(C)C3)Cn1c-2c(C2CCCCC2)c2ccc(C(=O)NS(=O)(=O)C(C)(C)C)cc21 (racemic)
Reply: FALSE

Task item: Dear colleague, could you confirm whether EC50 of COc1ccc2c(c1)C1CC1(C(=O)N1C3CCC1CN(C)C3)Cn1c-2c(C2CCCCC2)c2ccc(C(=O)NS(=O)(=O)C3CC3)cc21 (racemic) falls below 20 nM? Thanks.
Reply: TRUE

Task item: # strict comparison: is reported EC50 < 20 nM? input = COc1ccc2c(c1)C1CC1(C(=O)N1C3CCC1CN(C)C3)Cn1c-2c(C2CCCCC2)c2ccc(C(=O)NS(=O)(=O)CC(C)(C)C)cc21 (racemic)
Reply: FALSE

Task item: I'd appreciate it if you could check whether CCC(C)S(=O)(=O)NC(=O)c1ccc2c(C3CCCCC3)c3n(c2c1)CC1(C(=O)N2C4CCC2CN(C)C4)CC1c1cc(OC)ccc1-3 (racemic) has EC50 smaller than 20 nM.
Reply: FALSE

Task item: In the record for "COc1ccc2c(c1)[C@@H]1C[C@]1(C(=O)N1C3CCC1CN(C)C3)Cn1c-2c(C2CCCCC2)c2ccc(C(=O)NS(=O)(=O)CC(C)C)cc21" , is EC50 less than 20 nM?
Reply: TRUE

Task item: Regarding COc1ccc2c(c1)C1CC1(C(=O)N1C3CCC1CN(C)C3)Cn1c-2c(C2CCCCC2)c2ccc(C(=O)NS(=O)(=O)C(C)C)cc21 (racemic) , kindly confirm whether its EC50 is beneath 20 nM.
Reply: FALSE

Task item: I wonder whether CCCS(=O)(=O)NC(=O)c1ccc2c(C3CCCCC3)c3n(c2c1)CC1(C(=O)N2C4CCC2CN(C)C4)CC1c1cc(OC)ccc1-3 (racemic) has EC50 below 20 nM. Can you tell?
Reply: FALSE

----------
Tested on: Hepatitis C virus
Assay: Antiviral activity against HCV1a by replicon assay
Type: functional, organism-based, Hepacivirus hominis
Details: subtype 1a
Parameter: pEC50. Scope: all listed entries.
Scale explanation: pEC50 corresponds to minus log10 of a concentration expressed in moles per litre.

The examples below pair each entry with its known result.
> print(dat)
                                   compound  observed
1  CCCS(=O)(=O)NC(=O)c1ccc2c(C3CCCCC3)c3n(c2c1)CC1(C(=O)N2C4CCC2CN(C)C4)CC1c1cc(OC)ccc1-3 (racemic)      8.10
2  COc1ccc2c(c1)C1CC1(C(=O)N1C3CCC1CN(C)C3)Cn1c-2c(C2CCCCC2)c2ccc(C(=O)NS(=O)(=O)CC3CCC3)cc21 (racemic)      7.82
3  COc1ccc2c(c1)C1CC1(C(=O)N1C3CCC1CN(C)C3)Cn1c-2c(C2CCCCC2)c2ccc(C(=O)NS(=O)(=O)C3CCC3)cc21 (racemic)      7.64
4  COc1ccc2c(c1)C1CC1(C(=O)N1C3CCC1CN(C)C3)Cn1c-2c(C2CCCCC2)c2ccc(C(=O)NS(=O)(=O)CC(C)C)cc21 (racemic)      7.85

Task item: What pEC50 value was documented for this compound, "COc1ccc2c(c1)[C@H]1C[C@@]1(C(=O)N1C3CCC1CN(C)C3)Cn1c-2c(C2CCCCC2)c2ccc(C(=O)NS(=O)(=O)C(C)C)cc21" ?
Reply: 6.71

Task item: For the compound shown here, "COc1ccc2c(c1)[C@@H]1C[C@]1(C(=O)N1C3CCC1CN(C)C3)Cn1c-2c(C2CCCCC2)c2ccc(C(=O)NS(=O)(=O)C(C)C)cc21" , give the reported pEC50.
Reply: 8.15

Task item: # get_value(readout='pEC50', item= COc1ccc2c(c1)C1CC1(C(=O)N1C3CCC1CN(C)C3)Cn1c-2c(C2CCCCC2)c2ccc(C(=O)NS(=O)(=O)C(C)(C)C)cc21 (racemic) )
Reply: 8.10

Task item: Requested read-out: pEC50. Entry: COc1ccc2c(c1)C1CC1(C(=O)N1C3CCC1CN(C)C3)Cn1c-2c(C2CCCCC2)c2ccc(C(=O)NS(=O)(=O)N3CCC3)cc21 (racemic)
Reply: 7.92

Task item: Can you share its pEC50? I mean this compound: COc1ccc2c(c1)C1CC1(C(=O)N1C3CCC1CN(C)C3)Cn1c-2c(C2CCCCC2)c2ccc(C(=O)NS(=O)(=O)C3CCCC3)cc21 (racemic)
Reply: 7.62

Task item: What value of pEC50 has been recorded for this entry: CCC(C)S(=O)(=O)NC(=O)c1ccc2c(C3CCCCC3)c3n(c2c1)CC1(C(=O)N2C4CCC2CN(C)C4)CC1c1cc(OC)ccc1-3 (racemic)
Reply: 7.82

Task item: # input compound: COc1ccc2c(c1)C1CC1(C(=O)N1C3CCC1CN(C)C3)Cn1c-2c(C2CCCCC2)c2ccc(C(=O)NS(C)(=O)=O)cc21 (racemic) ; wanted: its pEC50
Reply: 7.89

Task item: Query: pEC50; subject: COc1ccc2c(c1)C1CC1(C(=O)N1C3CCC1CN(C)C3)Cn1c-2c(C2CCCCC2)c2ccc(C(=O)NS(=O)(=O)C3CC3)cc21 (racemic)
Reply: 8.15

Task item: Fill in the blank: the reported pEC50 of COc1ccc2c(c1)C1CC1(C(=O)N1C3CCC1CN(C)C3)Cn1c-2c(C2CCCCC2)c2ccc(C(=O)NS(=O)(=O)CC(C)(C)C)cc21 (racemic) is ____.
Reply: 7.64

----------
Test system: Hepatitis C virus
Assay: Antiviral activity against HCV1b by replicon assay
Assay type: functional, organism-based, Hepacivirus hominis
Details: genotype 1b
# label = MET if EC50 < 20 nM else NOT MET

Examples with answers:
> print(dat)
                                   molecule    label
1  CCN(C)S(=O)(=O)NC(=O)c1ccc2c(C3CCCCC3)c3n(c2c1)CC1(C(=O)N2C4CCC2CN(C)C4)CC1c1cc(OC)ccc1-3 (racemic)      MET
2  CCS(=O)(=O)NC(=O)c1ccc2c(C3CCCCC3)c3n(c2c1)CC1(C(=O)N2C4CCC2CN(C)C4)CC1c1cc(OC)ccc1-3 (racemic)  NOT MET
3  COc1ccc2c(c1)[C@H]1C[C@@]1(C(=O)N1C3CCC1CN(C)C3)Cn1c-2c(C2CCCCC2)c2ccc(C(=O)NS(=O)(=O)C(C)C)cc21  NOT MET
4  COc1ccc2c(c1)C1CC1(C(=O)N1C3CCC1CN(C)C3)Cn1c-2c(C2CCCCC2)c2ccc(C(=O)NS(=O)(=O)CC3CC3)cc21 (racemic)  NOT MET
5  COc1ccc2c(c1)C1CC1(C(=O)N1C3CCC1CN(C)C3)Cn1c-2c(C2CCCCC2)c2ccc(C(=O)NS(=O)(=O)C3CCC3)cc21 (racemic)  NOT MET

Now take the following molecule into account.
Task item: For COc1ccc2c(c1)C1CC1(C(=O)N1C3CCC1CN(C)C3)Cn1c-2c(C2CCCCC2)c2ccc(C(=O)NS(=O)(=O)CC3CCC3)cc21 (racemic) , is the recorded EC50 below the cut-off of 20 nM?
Reply: NOT MET
